- assayed system: Eukaryotic translation initiation factor 2-alpha kinase 3 (Rattus norvegicus, UniProt Q9Z1Z1)
- Sequence (Q9Z1Z1 whole entry): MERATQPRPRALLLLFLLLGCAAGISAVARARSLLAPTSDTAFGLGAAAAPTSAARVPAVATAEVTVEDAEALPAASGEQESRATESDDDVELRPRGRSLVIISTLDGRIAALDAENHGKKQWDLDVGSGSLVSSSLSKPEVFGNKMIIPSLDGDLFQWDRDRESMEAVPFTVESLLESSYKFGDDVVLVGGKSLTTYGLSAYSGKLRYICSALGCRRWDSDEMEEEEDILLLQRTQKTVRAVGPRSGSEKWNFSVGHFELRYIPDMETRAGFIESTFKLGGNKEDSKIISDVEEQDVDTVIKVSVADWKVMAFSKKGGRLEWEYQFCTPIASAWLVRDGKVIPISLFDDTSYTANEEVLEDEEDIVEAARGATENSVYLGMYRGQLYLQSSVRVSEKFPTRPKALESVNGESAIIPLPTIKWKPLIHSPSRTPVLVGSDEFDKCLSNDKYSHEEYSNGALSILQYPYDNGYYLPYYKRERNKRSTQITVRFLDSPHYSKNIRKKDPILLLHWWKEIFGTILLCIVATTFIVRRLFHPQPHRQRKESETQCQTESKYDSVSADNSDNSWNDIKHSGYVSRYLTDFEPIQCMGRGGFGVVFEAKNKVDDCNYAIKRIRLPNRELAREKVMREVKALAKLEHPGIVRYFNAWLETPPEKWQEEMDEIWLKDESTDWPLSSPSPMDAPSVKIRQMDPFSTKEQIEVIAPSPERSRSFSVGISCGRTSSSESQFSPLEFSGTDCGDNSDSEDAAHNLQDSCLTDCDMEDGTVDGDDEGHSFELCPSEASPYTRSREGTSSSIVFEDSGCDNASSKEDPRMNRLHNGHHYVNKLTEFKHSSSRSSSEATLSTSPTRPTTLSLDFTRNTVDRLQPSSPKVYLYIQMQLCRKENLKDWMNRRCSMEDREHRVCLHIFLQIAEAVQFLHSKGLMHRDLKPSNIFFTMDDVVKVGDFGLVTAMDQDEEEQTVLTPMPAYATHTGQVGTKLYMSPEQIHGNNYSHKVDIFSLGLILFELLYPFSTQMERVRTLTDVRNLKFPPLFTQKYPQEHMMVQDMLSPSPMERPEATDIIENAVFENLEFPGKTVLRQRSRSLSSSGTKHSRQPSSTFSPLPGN
- assay details: Inhibition of PERK activation in rat INS-1 cells assessed as suppression of tunicamycin-induced CHOP mRNA expression after 8 hrs by qRT-PCR analysis
reported endpoint: IC50 (nM)
Response body: numeric value in nM, unit text excluded.

Recorded IC50 for `O=C(NCc1ccc(C(F)(F)F)cc1)c1cccc(CN2CCCCC2)c1` , please?
37
